Test system: INS1
Experiment: Insulinotropic activity in Rattus norvegicus (rat) INS-1 cells assessed as increase of glucose-induced insulin release at 0.01 mg/ml after 90 min by radioimmunoassay relative to 5.6 mM of glucose
Assay type: functional
The following molecules are listed with their measured Activity values.
measurementType: Activity (%)

[[record]]
structuresmilesstring = "CCOC(=O)CN1C(=O)S/C(=C/c2coc3ccc([N+](=O)[O-])cc3c2=O)C1=O"
measurementtype = "Activity"
endpointvalue = 74.1

[[record]]
structuresmilesstring = "CCOC(=O)CN1C(=O)S/C(=C/c2coc3c(C)cc(C)cc3c2=O)C1=O"
measurementtype = "Activity"
endpointvalue = 154.4

[[record]]
structuresmilesstring = "O=C1NC(=O)/C(=C\\c2coc3ccccc3c2=O)S1"
measurementtype = "Activity"
endpointvalue = 63.57

[[record]]
structuresmilesstring = "Cc1cc(C)c2occ(/C=C3/SC(=O)NC3=O)c(=O)c2c1"
measurementtype = "Activity"
endpointvalue = 84.64

[[record]]
structuresmilesstring = "Cc1ccc2occ(/C=C3/SC(=O)N(CC(=O)O)C3=O)c(=O)c2c1"
measurementtype = "Activity"
endpointvalue = 120.7

[[record]]
structuresmilesstring = "CCOC(=O)CN1C(=O)S/C(=C/c2coc3ccccc3c2=O)C1=O"
measurementtype = "Activity"
endpointvalue = 65.53

[[record]]
structuresmilesstring = "O=C1NC(=O)/C(=C\\c2coc3ccc([N+](=O)[O-])cc3c2=O)S1"
measurementtype = "Activity"
endpointvalue = 69.2

[[record]]
structuresmilesstring = "Cc1ccc2occ(/C=C3/SC(=O)NC3=O)c(=O)c2c1"
measurementtype = "Activity"
endpointvalue = 75.61

[[record]]
structuresmilesstring = "O=C(O)CN1C(=O)S/C(=C/c2coc3ccccc3c2=O)C1=O"
measurementtype = "Activity"
endpointvalue = 121

[[record]]
structuresmilesstring = "Cc1cc(C)c2occ(/C=C3/SC(=O)N(CC(=O)O)C3=O)c(=O)c2c1"
measurementtype = "Activity"
endpointvalue = 131.6

[[record]]
structuresmilesstring = "CC(C)c1ccc2occ(/C=C3/SC(=O)N(CC(=O)O)C3=O)c(=O)c2c1"
measurementtype = "Activity"
endpointvalue = 144.3

[[record]]
structuresmilesstring = "CCOC(=O)CN1C(=O)S/C(=C/c2coc3ccc(C)cc3c2=O)C1=O"
measurementtype = "Activity"
endpointvalue = 177.7

[[record]]
structuresmilesstring = "O=C(O)CN1C(=O)S/C(=C/c2coc3ccc([N+](=O)[O-])cc3c2=O)C1=O"
measurementtype = "Activity"
endpointvalue = 111

[[record]]
structuresmilesstring = "CC(C)c1ccc2occ(/C=C3/SC(=O)NC3=O)c(=O)c2c1"
measurementtype = "Activity"
endpointvalue = 81.55

[[record]]
structuresmilesstring = "CCOC(=O)CN1C(=O)S/C(=C/c2coc3ccc(C(C)C)cc3c2=O)C1=O"
measurementtype = "Activity"
endpointvalue = 180.5

